In this section, each of the compounds is paired with its reported selectivity ratio.
- Method notes: Selectivity index, ratio of ED50 for human HaCaT cells to MIC for Staphylococcus aureus 3R7089 strain Oxford/ATCC 9144
- Type: toxicity
- Condition info: read-out: Selectivity Index
Square brackets hold non-standard residues; d marks the D form. Peptide text beside a SMILES is read from it. N(4-F-Bzl)Gly = O=C(O)CNCc1ccc(F)cc1; Gly(N-(CH2)6NH2) = NCCCCCCNCC(=O)O; Gly(N-2-aminoethyl) = NCCNCC(=O)O; Nspe = C[C@H](NCC(=O)O)c1ccccc1; NhArg = N=C(N)NCCCCNCC(=O)O; Nphe = O=C(O)CNCc1ccccc1; Nlys = NCCCCNCC(=O)O

| Compound | selectivity ratio |
| --- | --- |
| C[C@@H](c1ccccc1)N(CC(N)=O)C(=O)CN(Cc1ccc(F)cc1)C(=O)CN(CCCCN)C(=O)CN(C(=O)CN(Cc1ccc(F)cc1)C(=O)CN(CCCCN)C(=O)CN(C(=O)CN(Cc1ccc(F)cc1)C(=O)CN(CCCCN)C(=O)CN(C(=O)CN(Cc1ccc(F)cc1)C(=O)CNCCCCN)[C@@H](C)c1ccccc1)[C@@H](C)c1ccccc1)[C@@H](C)c1ccccc1 | 10 |
| NCCCCNCC(=O)N(CC(=O)N(CC(=O)N(CCCCN)CC(=O)N(CC(=O)N(CC(=O)N(CCCCN)CC(=O)N(CC(=O)N(CC(N)=O)Cc1ccc(F)cc1)Cc1ccc(F)cc1)Cc1ccc(F)cc1)Cc1ccc(F)cc1)Cc1ccc(F)cc1)Cc1ccc(F)cc1 (H-[Nlys][N(4-F-Bzl)Gly][N(4-F-Bzl)Gly][Nlys][N(4-F-Bzl)Gly][N(4-F-Bzl)Gly][Nlys][N(4-F-Bzl)Gly][N(4-F-Bzl)Gly]-NH2) | 33 |
| CC(c1ccccc1)N(CC(=O)N(CCCCN)CC(=O)N(CC(=O)N(CC(=O)N(CCCCN)CC(=O)N(CC(=O)N(CC(N)=O)[C@@H](C)c1ccccc1)[C@@H](C)c1ccccc1)Cc1ccc(F)cc1)Cc1ccc(F)cc1)C(=O)CN(C(=O)CN(CCCCN)C(=O)CN(Cc1ccc(F)cc1)C(=O)CN(Cc1ccc(F)cc1)C(=O)CNCCCCN)[C@@H](C)c1ccccc1 (single isomer, unassigned) | 50 |
| C[C@@H](c1ccccc1)N(CC(N)=O)C(=O)CN(C(=O)CN(CCN)C(=O)CN(C(=O)CN(C(=O)CNCCN)[C@@H](C)c1ccccc1)[C@@H](C)c1ccccc1)[C@@H](C)c1ccccc1 | 1 |
| CCCCCNCC(=O)N(CC(=O)N(CC(=O)N(CCCCN)CC(=O)N(CC(=O)N(CC(=O)N(CCCCN)CC(=O)N(CC(=O)N(CC(=O)N(CCCCN)CC(=O)N(CC(=O)N(CC(N)=O)[C@@H](C)c1ccccc1)[C@@H](C)c1ccccc1)C(C)c1ccccc1)[C@@H](C)c1ccccc1)[C@@H](C)c1ccccc1)[C@@H](C)c1ccccc1)C(C)c1ccccc1)[C@@H](C)c1ccccc1 (single isomer, unassigned) | 6 |
| NCCNCC(=O)N(CC(=O)N(CC(=O)N(CCN)CC(=O)N(CC(=O)N(CC(=O)N(CCN)CC(=O)N(CC(=O)N(CC(N)=O)Cc1ccccc1)Cc1ccccc1)Cc1ccccc1)Cc1ccccc1)Cc1ccccc1)Cc1ccccc1 (H-[Gly(N-2-aminoethyl)][Nphe][Nphe][Gly(N-2-aminoethyl)][Nphe][Nphe][Gly(N-2-aminoethyl)][Nphe][Nphe]-NH2) | 8 |
| NCCCCNCC(=O)N(CC(=O)N(CC(=O)N(CCCCN)CC(=O)N(CC(=O)N(CC(N)=O)Cc1ccccc1)Cc1ccccc1)Cc1ccccc1)Cc1ccccc1 (H-[Nlys][Nphe][Nphe][Nlys][Nphe][Nphe]-NH2) | 1 |
| NCCCCCCNCC(=O)N(CC(=O)N(CC(=O)N(CCCCCCN)CC(=O)N(CC(=O)N(CC(=O)N(CCCCCCN)CC(=O)N(CC(=O)N(CC(N)=O)Cc1ccccc1)Cc1ccccc1)Cc1ccccc1)Cc1ccccc1)Cc1ccccc1)Cc1ccccc1 (H-[Gly(N-(CH2)6NH2)][Nphe][Nphe][Gly(N-(CH2)6NH2)][Nphe][Nphe][Gly(N-(CH2)6NH2)][Nphe][Nphe]-NH2) | 17 |
| NCCCCNCC(=O)N(CC(=O)N(CC(=O)N(CCCCN)CC(=O)N(CC(=O)N(CC(=O)N(CCCCN)CC(=O)N(CC(=O)N(CC(=O)N(CCCCN)CC(=O)N(CC(=O)N(CC(N)=O)Cc1ccccc1)Cc1ccccc1)Cc1ccccc1)Cc1ccccc1)Cc1ccccc1)Cc1ccccc1)Cc1ccccc1)Cc1ccccc1 (H-[Nlys][Nphe][Nphe][Nlys][Nphe][Nphe][Nlys][Nphe][Nphe][Nlys][Nphe][Nphe]-NH2) | 12 |
| C[C@@H](c1ccccc1)N(CC(N)=O)C(=O)CN(C(=O)CN(CCCCN)C(=O)CN(C(=O)CN(C(=O)CN(CCCCN)C(=O)CN(C(=O)CN(C(=O)CN(CCCCNC(=N)N)C(=O)CN(C(=O)CN(C(=O)CNCCCCNC(=N)N)[C@@H](C)c1ccccc1)[C@@H](C)c1ccccc1)[C@@H](C)c1ccccc1)[C@@H](C)c1ccccc1)[C@@H](C)c1ccccc1)[C@@H](C)c1ccccc1)[C@@H](C)c1ccccc1 (H-[NhArg][Nspe][Nspe][NhArg][Nspe][Nspe][Nlys][Nspe][Nspe][Nlys][Nspe][Nspe]-NH2) | 1 |
| C[C@@H](c1ccccc1)N(CC(N)=O)C(=O)CN(C(=O)CN(CCCCN)C(=O)CN(C(=O)CN(C(=O)CN(CCCCNC(=N)N)C(=O)CN(C(=O)CN(C(=O)CN(CCCCN)C(=O)CN(C(=O)CN(C(=O)CNCCCCNC(=N)N)[C@@H](C)c1ccccc1)[C@@H](C)c1ccccc1)[C@@H](C)c1ccccc1)[C@@H](C)c1ccccc1)[C@@H](C)c1ccccc1)[C@@H](C)c1ccccc1)[C@@H](C)c1ccccc1 (H-[NhArg][Nspe][Nspe][Nlys][Nspe][Nspe][NhArg][Nspe][Nspe][Nlys][Nspe][Nspe]-NH2) | 2 |
| CC(c1ccccc1)N(CC(=O)N(CCCCN)CC(=O)N(CC(=O)N(CC(=O)N(CCCCN)CC(=O)N(CC(=O)N(CC(N)=O)[C@@H](C)c1ccccc1)[C@@H](C)c1ccccc1)Cc1ccc(F)cc1)Cc1ccc(F)cc1)C(=O)CN(C(=O)CNCCCCN)[C@@H](C)c1ccccc1 (single isomer, unassigned) | 22 |
